test system: FXR:RXRa (NR concentration 270 nM, RXRa partner concentration 90 nM); test: PBM binding z-score (relative to random genomic background probes); higher = stronger binding; sequences stand for … in GC…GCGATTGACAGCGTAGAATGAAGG
Use 3 as the dividing line for PBM binding z-score, with the line itself on the true (1) side and lower values as false (0).

Problem: Evaluate CGAATTAGGTCATCCAGGACAGTGAATACATTGA : PBM binding z-score at minimum 3?
Solution: true (1)

###

system: THRa:RXRa (NR concentration 90 nM, RXRa partner concentration 90 nM); assay: PBM binding z-score (relative to random genomic background probes); higher = stronger binding; sequences stand for … in GC…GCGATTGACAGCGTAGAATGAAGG
measurement-kind: PBM binding z-score
// no unit string in output, number only

Would you please look over these solved cases?
{"query-sequence": "ATATGTAGGTTAGCGGGTCATTCAGTTTGCGCAT", "measurement-kind": "PBM binding z-score", "quantitative-result": 2.06}
{"query-sequence": "TCATATAGGTAAAGGTGATAGTCGAACGATATGA", "measurement-kind": "PBM binding z-score", "quantitative-result": 0.353}
{"query-sequence": "GTACCAAGGTGAAAAGGTCGTTGATGAGTAGGCG", "measurement-kind": "PBM binding z-score", "quantitative-result": 2.58}

Problem: Item under review: CCCAGTAGGTTATGGGGCATTCAGGCAACGGTGA . Reported PBM binding z-score?
Solution: 0.512

Problem: Item under review: GATACAGGGTCAGCTAGTGGCCAGAGTATGGAAA . Reported PBM binding z-score?
Solution: 2.46

Problem: Item under review: ACTATTACTTGAGACGAGGGCAACCGATAGGTTG . Reported PBM binding z-score?
Solution: 1.15

###

system: PPARg DBDmut:RXRa IVT, anti-PPARg (DBD mutation: PPARg1 K132A/R137A, NR concentration 270 nM, RXRa partner concentration 90 nM); experiment: PBM binding z-score (relative to random genomic background probes); higher = stronger binding; sequences stand for … in GC…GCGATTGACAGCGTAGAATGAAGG
Use 0.2 as the dividing line for PBM binding z-score, with the line itself on the 1.0 side and lower values as 0.0.

{"query-sequence": "TTTAGCAGGCCAGAGGGTCACTCAAGAGGTACGG", "category-label": 0.0}

Problem: Evaluate CGAACTAGGTCACGAAAGGTCAAAGTCGAATGAC : PBM binding z-score at minimum 0.2?
Solution: 1.0

Problem: Evaluate GCTAGTTGGTCAGTACAAGGTCACACACCGGTCG : PBM binding z-score at minimum 0.2?
Solution: 0.0

Problem: Evaluate CAAACTAGGTCAACAGGTCAAAGTCCGCTTCCCG : PBM binding z-score at minimum 0.2?
Solution: 1.0

###

Below: a set of entries, each annotated with reported PBM binding z-score.
tested on: RARg:RXRa (NR concentration 270 nM, RXRa partner concentration 90 nM); test: PBM binding z-score (relative to random genomic background probes); higher = stronger binding; sequences stand for … in GC…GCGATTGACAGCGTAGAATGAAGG
// no unit string in output, number only

Problem: Item under review: TTACCAAGGAGAAGGTCGTTGATCCCTCTGTAGA . Reported PBM binding z-score?
Solution: 0.225

Problem: Item under review: GCGACAGGGGCAAAGCAGGTTACCATAAGGTTGG . Reported PBM binding z-score?
Solution: 1.06

Problem: Item under review: ACTATTAGTTGAGACGAGGGCAAGCGATAGGTTG . Reported PBM binding z-score?
Solution: 0.352

Problem: Item under review: ACAGACAGGTGAGTGAAGCTAACTCAGCTGGACG . Reported PBM binding z-score?
Solution: -0.0417

###

Below: a set of entries, each annotated with reported PBM binding z-score.
test system: PPARg:RXRa IVT, anti-PPARg (NR concentration 270 nM, RXRa partner concentration 90 nM); assay: PBM binding z-score (relative to random genomic background probes); higher = stronger binding; sequences stand for … in GC…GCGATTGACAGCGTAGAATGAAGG
// no unit string in output, number only

{"query-sequence": "CGAACGAGGGCATGAGTTGATAGGAAATGCCGAT", "PBM binding z-score": 1.68}
{"query-sequence": "CCGACTGGGGCAAATGTTACCATACTCAGTACGA", "PBM binding z-score": 3.74}
{"query-sequence": "ATATGTCGGTTACATCCGGGTCATTCAGGCTATG", "PBM binding z-score": 3.18}
{"query-sequence": "ATATCTAGGTTACATCCGGGTCATTCAGGCTATG", "PBM binding z-score": 7.41}

Problem: Item under review: TAGCCTAGGTCAGATCGGGCCAGTACACGCTATA . Reported PBM binding z-score?
Solution: 1.62

Problem: Item under review: GCAGACAGGTGAAACGCAGGTAAGTCAGGGTGGC . Reported PBM binding z-score?
Solution: 0.327

###

system: LXRb:RXRa (NR concentration 270 nM, RXRa partner concentration 90 nM); assay: PBM binding z-score (relative to random genomic background probes); higher = stronger binding; sequences stand for … in GC…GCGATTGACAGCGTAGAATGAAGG
Use 0.7 as the dividing line for PBM binding z-score, with the line itself on the yes (1) side and lower values as no (0).

Problem: Evaluate CAAACTAGGTTACCGGAAGGTCAAAGTCCGCATG : PBM binding z-score at minimum 0.7?
Solution: yes (1)

Problem: Evaluate AGTCAAAGTTCACTAGGTAACGCAAGATTCAGCT : PBM binding z-score at minimum 0.7?
Solution: yes (1)

Problem: Evaluate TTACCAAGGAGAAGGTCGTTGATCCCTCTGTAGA : PBM binding z-score at minimum 0.7?
Solution: yes (1)

Problem: Evaluate GGAACGAGGGCAAGTTGCTAGCAGAGTTTGATGG : PBM binding z-score at minimum 0.7?
Solution: no (0)

Problem: Evaluate GATACATGGTCAAGGCCAGAGTACGCGTATTGAT : PBM binding z-score at minimum 0.7?
Solution: no (0)

###

tested on: RARb homodimer (NR concentration 270 nM); assay: PBM binding z-score (relative to random genomic background probes); higher = stronger binding; sequences stand for … in GC…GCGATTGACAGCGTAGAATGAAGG
measurement-kind: PBM binding z-score
// no unit string in output, number only

Would you please look over these solved cases?
{"query-sequence": "AGTCAAAGTTCAGGACGAGGTAAGGTAAAGCACG", "quantitative-result": 3.46}
{"query-sequence": "CCAACTAGGTCATCCAGGACAGTGAATACATTGA", "quantitative-result": 3.44}
{"query-sequence": "TCATATAGGTAATACAGGTGCAAGTCGGCATCTA", "quantitative-result": 0.266}

Problem: Item under review: GCTCCGAGGACAAGGTCAGAGCTTTGTCCGTAGA . Reported PBM binding z-score?
Solution: 3.24

Problem: Item under review: TCTTGTAGATCAAAAGTTAAGAAAGCCGAAGCCT . Reported PBM binding z-score?
Solution: -0.728

Problem: Item under review: ACTCGGAGGACAAAGATCAGAGCTACGCCAGTGA . Reported PBM binding z-score?
Solution: -0.272

Problem: Item under review: TAGCCTAGGTCAGGCGGGCCAGTATAGTGTCGGC . Reported PBM binding z-score?
Solution: 2.21

Problem: Item under review: CAAACTAGGGCAAGAGGTCAAAGTCCGCTTCCCG . Reported PBM binding z-score?
Solution: 5.19

###

test system: LXRa homodimer (NR concentration 270 nM); assay: PBM binding z-score (relative to random genomic background probes); higher = stronger binding; sequences stand for … in GC…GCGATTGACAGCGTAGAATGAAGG
Use 0.3 as the dividing line for PBM binding z-score, with the line itself on the rule met side and lower values as rule not met.

{"query-sequence": "TCTAGTTGGTCACGTAGGTCACACACGACGGGTA", "category-label": "rule met"}

Problem: Evaluate TCTCAGAGGACACGAAAGGTCAGAGCTCGACATC : PBM binding z-score at minimum 0.3?
Solution: rule met

Problem: Evaluate CGGACTAGGTCATTGACAGGACAGTGAATAGTAA : PBM binding z-score at minimum 0.3?
Solution: rule not met

###

test system: PPARa:RXRa (NR concentration 270 nM, RXRa partner concentration 90 nM); assay: PBM binding z-score (relative to random genomic background probes); higher = stronger binding; sequences stand for … in GC…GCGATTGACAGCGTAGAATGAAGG
Use 2 as the dividing line for PBM binding z-score, with the line itself on the 1 side and lower values as -1.

Would you please look over these solved cases?
{"query-sequence": "ATATGTAGGCTAGCTGGGGTCATTCAGACTAGGC", "category-label": 1}
{"query-sequence": "GCATATAGGTAATACAATGTGAAAGTCCGATTGT", "category-label": -1}
{"query-sequence": "TCTAGTTGGTCACGGAGATCACACACGACGGGTA", "category-label": -1}

Problem: Evaluate TCATATAGATAATACAGGTGAAAGTCGGCATCTA : PBM binding z-score at minimum 2?
Solution: -1

Problem: Evaluate GCTTGTAGATCAAGGTTATGAAAGACTAAGCTAA : PBM binding z-score at minimum 2?
Solution: -1

Problem: Evaluate GCGACTGGGGCAAAGCAGGTCACCATAAGGTTGG : PBM binding z-score at minimum 2?
Solution: 1

Problem: Evaluate CGAACGAGGGCATGATTTGATAGCAAATGCCGAT : PBM binding z-score at minimum 2?
Solution: -1

Problem: Evaluate TCTATTAGTTGAAGGGCAAACGACGAGTCCGTTT : PBM binding z-score at minimum 2?
Solution: -1
